Assay System: Voltage-dependent T-type calcium channel subunit alpha-1H (Homo sapiens);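 also: channel activity triggered by adding a high calcium stimulation buffer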
Sequence (O95180 whole entry): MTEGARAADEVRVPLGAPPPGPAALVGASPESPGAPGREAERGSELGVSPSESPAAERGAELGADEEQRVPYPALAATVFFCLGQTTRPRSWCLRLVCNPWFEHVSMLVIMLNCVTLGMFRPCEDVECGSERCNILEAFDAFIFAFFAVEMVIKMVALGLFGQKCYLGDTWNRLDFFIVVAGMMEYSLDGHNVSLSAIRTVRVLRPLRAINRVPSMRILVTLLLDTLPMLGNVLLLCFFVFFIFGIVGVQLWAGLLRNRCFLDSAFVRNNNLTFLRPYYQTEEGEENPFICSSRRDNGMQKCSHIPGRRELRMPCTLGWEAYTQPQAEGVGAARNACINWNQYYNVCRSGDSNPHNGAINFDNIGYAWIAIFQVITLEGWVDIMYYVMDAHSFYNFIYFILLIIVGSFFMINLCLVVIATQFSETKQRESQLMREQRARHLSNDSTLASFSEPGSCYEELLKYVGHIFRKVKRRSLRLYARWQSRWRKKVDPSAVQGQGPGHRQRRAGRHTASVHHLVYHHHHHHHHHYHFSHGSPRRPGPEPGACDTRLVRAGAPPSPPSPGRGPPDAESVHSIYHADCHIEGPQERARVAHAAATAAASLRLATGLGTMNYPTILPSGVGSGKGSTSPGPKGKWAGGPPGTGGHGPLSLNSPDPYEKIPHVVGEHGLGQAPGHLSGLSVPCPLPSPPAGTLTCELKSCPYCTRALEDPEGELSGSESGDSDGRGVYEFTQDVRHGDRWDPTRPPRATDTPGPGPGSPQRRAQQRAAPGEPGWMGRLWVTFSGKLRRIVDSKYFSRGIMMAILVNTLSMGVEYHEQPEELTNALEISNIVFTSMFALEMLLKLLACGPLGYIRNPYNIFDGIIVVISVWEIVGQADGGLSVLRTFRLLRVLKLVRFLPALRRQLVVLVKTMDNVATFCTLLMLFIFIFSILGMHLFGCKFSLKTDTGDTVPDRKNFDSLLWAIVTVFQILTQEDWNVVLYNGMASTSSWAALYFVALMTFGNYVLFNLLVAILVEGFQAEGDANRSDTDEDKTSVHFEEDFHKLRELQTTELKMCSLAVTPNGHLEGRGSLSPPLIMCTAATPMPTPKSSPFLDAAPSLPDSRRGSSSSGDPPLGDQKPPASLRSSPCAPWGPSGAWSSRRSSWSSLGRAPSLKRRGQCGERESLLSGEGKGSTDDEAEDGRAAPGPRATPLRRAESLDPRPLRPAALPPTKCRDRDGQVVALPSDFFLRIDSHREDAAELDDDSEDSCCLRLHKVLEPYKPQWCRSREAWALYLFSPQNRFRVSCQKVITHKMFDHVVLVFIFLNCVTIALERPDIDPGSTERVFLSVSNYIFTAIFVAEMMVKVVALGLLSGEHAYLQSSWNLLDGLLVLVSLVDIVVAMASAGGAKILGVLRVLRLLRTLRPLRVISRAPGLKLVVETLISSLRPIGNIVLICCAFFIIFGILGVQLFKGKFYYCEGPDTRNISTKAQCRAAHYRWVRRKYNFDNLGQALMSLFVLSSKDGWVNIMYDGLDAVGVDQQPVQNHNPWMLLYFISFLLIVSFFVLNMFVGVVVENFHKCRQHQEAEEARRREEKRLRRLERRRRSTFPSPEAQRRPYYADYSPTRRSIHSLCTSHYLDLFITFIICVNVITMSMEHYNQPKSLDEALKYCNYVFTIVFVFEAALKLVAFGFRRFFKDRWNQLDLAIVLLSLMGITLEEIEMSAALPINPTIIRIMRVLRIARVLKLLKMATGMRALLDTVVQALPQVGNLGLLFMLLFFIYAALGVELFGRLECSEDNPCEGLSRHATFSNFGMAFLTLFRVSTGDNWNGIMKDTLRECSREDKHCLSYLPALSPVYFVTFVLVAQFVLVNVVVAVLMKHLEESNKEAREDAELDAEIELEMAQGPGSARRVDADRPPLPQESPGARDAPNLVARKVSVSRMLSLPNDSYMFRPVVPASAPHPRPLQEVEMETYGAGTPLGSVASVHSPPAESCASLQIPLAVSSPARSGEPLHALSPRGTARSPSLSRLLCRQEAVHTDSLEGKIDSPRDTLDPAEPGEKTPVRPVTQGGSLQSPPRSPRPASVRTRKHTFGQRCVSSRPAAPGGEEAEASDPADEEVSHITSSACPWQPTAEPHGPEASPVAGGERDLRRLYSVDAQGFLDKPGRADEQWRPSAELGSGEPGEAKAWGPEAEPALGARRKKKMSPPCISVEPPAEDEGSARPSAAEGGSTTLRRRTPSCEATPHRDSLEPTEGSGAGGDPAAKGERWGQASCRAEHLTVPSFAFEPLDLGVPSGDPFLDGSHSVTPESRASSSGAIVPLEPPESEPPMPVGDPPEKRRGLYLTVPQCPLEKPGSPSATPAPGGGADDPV
Type: functional
The source made the active and inactive calls.
Quantity Name: EC50

# count of solved cases: 3
| Compound | Assay System | EC50 |
| --- | --- | --- |
| N=c1n(Cc2ccccc2)c2ccccc2n1CC(O)COc1ccccc1 (stereo unspecified) | Voltage-dependent T-type calcium channel subunit alpha-1H (Homo sapiens) | 2.6 µM (active) |
| C=CCc1ccc(OCC(O)CN2CCC(Cc3ccccc3)CC2)c(OC)c1 (stereo unspecified) | Voltage-dependent T-type calcium channel subunit alpha-1H (Homo sapiens) | 6.13 µM (active) |
| O=C(CSCc1nc2ccccc2[nH]1)N1CCN(c2cccc(Cl)c2)CC1 | Voltage-dependent T-type calcium channel subunit alpha-1H (Homo sapiens) | 3.55 µM (active) |

[ask] Complete the entry with EC50 for CC(C)(C)n1nnnc1C(c1ccc(F)cc1)N(Cc1ccc(F)cc1)Cc1ccco1 (stereo unspecified)
[reply] 2.6 µM (active)

[ask] Complete the entry with EC50 for Oc1ccc(C(c2nnnn2C2CCCC2)N2CCc3ccccc3C2)cc1 (stereo unspecified)
[reply] 5.95 µM (active)

[ask] Complete the entry with EC50 for Cc1nc(CS(=O)(=O)c2ccc(Cl)cc2)cc(Sc2ccc(Cl)cc2)n1
[reply] 4.35 µM (active)

====

Assay Comment: HEK-293T viability loss after treatment – luminescence, T-cell screen hits, cytotoxicity control for TCR NF-kB inhibitor project, dose response (AID 489026);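 also: cells exposed to compound about 14 hours before the viability readout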
Assay type: functional, cell-based
Calls of active or inactive are those of the source.
IC50 values, listed per item

# count of solved cases: 3
| Compound | IC50 |
| --- | --- |
| CCC(=O)NC(c1cccs1)c1ccc2cccnc2c1O (centres undefined) | > 80 µM (inactive) |
| CCCCc1ccc(NC(=O)C(=O)NCCN2CCN(Cc3ccc([N+](=O)[O-])cc3)CC2)cc1 | > 80 µM (inactive) |
| Cc1c(C(=O)N/N=C/c2c(O)ccc3ccccc23)nnn1-c1nonc1N | > 80 µM (inactive) |

Next item in the queue.
[ask] Complete the entry with IC50 for CCCCCn1c2c(c(=N)c3ccccc31)CCC2
[reply] > 80 µM (inactive)

====

IC50 values, listed per item
Assay System: Sentrin-specific protease 6 (Homo sapiens, UniProt Q9GZR1)
Sequence (Q9GZR1 whole entry): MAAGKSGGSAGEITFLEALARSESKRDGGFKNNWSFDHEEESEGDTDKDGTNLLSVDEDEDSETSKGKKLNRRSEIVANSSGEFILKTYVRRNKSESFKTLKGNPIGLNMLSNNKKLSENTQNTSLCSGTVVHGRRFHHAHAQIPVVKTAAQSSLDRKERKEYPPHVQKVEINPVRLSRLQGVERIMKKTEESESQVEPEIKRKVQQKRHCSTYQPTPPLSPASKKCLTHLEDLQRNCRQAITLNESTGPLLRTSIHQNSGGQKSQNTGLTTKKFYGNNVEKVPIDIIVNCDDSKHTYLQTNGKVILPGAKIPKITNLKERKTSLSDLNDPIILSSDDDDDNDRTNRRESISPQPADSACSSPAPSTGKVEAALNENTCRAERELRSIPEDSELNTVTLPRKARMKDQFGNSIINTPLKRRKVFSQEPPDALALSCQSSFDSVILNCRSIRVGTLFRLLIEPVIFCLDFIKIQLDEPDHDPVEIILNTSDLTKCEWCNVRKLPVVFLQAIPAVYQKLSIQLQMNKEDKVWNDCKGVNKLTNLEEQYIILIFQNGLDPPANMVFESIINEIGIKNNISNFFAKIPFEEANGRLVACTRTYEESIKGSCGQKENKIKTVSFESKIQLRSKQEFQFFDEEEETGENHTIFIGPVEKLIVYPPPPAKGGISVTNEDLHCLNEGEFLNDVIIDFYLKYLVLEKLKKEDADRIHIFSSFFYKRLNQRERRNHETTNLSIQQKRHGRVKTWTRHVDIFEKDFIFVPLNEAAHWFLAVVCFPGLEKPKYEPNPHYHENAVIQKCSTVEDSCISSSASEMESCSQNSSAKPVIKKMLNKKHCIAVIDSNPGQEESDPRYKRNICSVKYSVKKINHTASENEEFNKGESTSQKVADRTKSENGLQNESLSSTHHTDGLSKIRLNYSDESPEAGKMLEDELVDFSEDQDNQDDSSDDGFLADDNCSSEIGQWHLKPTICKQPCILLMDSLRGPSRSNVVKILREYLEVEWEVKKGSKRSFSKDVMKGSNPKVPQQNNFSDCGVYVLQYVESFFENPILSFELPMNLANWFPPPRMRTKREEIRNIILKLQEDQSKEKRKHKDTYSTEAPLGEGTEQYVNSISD
Assay Comment: SAR Analysis of small molecule inhibitors of Sentrin-specific protease 6 (SENP6) using a Luminescent assay. [Related pubchem assays (depositor defined):AID2582, AID2599]
Format: functional
The source made the active and inactive calls.

# count of solved cases: 3
| Molecule | Assay System | Value Observed |
| --- | --- | --- |
| COc1ccc(C2C(C#N)=C(N)Oc3c2c(C)nn3-c2ccccc2)cc1 (centres undefined) | Sentrin-specific protease 6 (Homo sapiens, UniProt Q9GZR1) | 32.4 µM (active) |
| Fc1ccc(COc2ccc(C(=S)N3CCCC3)cc2)cc1 | Sentrin-specific protease 6 (Homo sapiens, UniProt Q9GZR1) | 1.68 µM (active) |
| C(=C\c1nc(-c2ccc(N3CCOCC3)cc2)no1)/c1ccccc1 | Sentrin-specific protease 6 (Homo sapiens, UniProt Q9GZR1) | > 99 µM (inactive) |

[ask] Complete the entry with IC50 for Cc1ccsc1C(=O)Nc1nc2ccc(Cl)cc2s1
[reply] 0.66 µM (active)

====

Assay Comment: luciferase reporter signal suppression in cells – H4 neuroglioma cells, luminescence, dose response (AID 1990)
Type: functional, cell-based
The source made the active and inactive calls.
Quantity Name: EC50

[ask] Complete the entry with EC50 for CCc1nnc(NC(=O)CSc2nc3cccnc3n2C2CCCCC2)s1
[reply] 23.2 µM (active)

[ask] Complete the entry with EC50 for CC(Oc1cccc(Cl)c1)C(=O)Nc1ccc([N+](=O)[O-])cn1 (stereo not given)
[reply] 21.4 µM (active)

[ask] Complete the entry with EC50 for Cc1ccc(C)c(/C=C/C(=O)c2ccccc(=O)c2O)c1
[reply] 13.9 µM (active)

[ask] Complete the entry with EC50 for Cc1ccc(NC(=O)COc2ccc(/C=C3/S/C(=N/c4ccccc4)N(Cc4cccnc4)C3=O)cc2)cc1
[reply] > 120 µM (not active)

[ask] Complete the entry with EC50 for COc1ccc(C(=O)Nn2c(SCC(=O)NCc3ccccc3)nc3ccccc3c2=O)cc1
[reply] 9.49 µM (active)

====

Entries below carry reported AC50 on Cytochrome P450 2C9 (Homo sapiens).
Sequence (P11712 whole entry): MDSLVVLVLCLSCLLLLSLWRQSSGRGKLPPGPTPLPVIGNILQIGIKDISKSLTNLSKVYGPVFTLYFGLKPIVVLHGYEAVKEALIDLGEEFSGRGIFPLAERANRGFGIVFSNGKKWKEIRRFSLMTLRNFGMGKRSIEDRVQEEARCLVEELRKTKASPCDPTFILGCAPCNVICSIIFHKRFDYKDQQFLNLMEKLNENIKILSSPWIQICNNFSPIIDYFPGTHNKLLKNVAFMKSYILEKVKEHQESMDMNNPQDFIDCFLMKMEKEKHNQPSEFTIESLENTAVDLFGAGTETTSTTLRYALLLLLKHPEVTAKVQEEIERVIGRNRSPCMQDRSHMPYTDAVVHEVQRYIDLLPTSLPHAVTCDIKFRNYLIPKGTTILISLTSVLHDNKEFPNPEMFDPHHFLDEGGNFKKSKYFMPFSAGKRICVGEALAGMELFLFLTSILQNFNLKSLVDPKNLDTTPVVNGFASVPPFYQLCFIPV

# count of solved cases: 4
| Compound | Assay System | AC50 |
| --- | --- | --- |
| O=[N+]([O-])c1cccnc1NCCNc1ncc(C(F)(F)F)cc1Cl | Cytochrome P450 2C9 (Homo sapiens) | inconclusive |
| COc1ccc(CNC(=O)C2CC(c3cccc([N+](=O)[O-])c3)=NO2)cc1 (centres undefined) | Cytochrome P450 2C9 (Homo sapiens) | inconclusive |
| C=CCSc1nc(NC)c2sccc2n1 | Cytochrome P450 2C9 (Homo sapiens) | inconclusive |
| Cc1cc2c(C(F)(F)F)cc(=O)oc2c2c1NCCC2 | Cytochrome P450 2C9 (Homo sapiens) | inconclusive |

[ask] Complete the entry with AC50 for CCOc1ccc(-n2c(O)nnc2SCC(=O)Nc2ccccc2C)cc1
[reply] inconclusive

[ask] Complete the entry with AC50 for COc1ccccc1CNC(=O)C1CCN(S(=O)(=O)N2CC(C)CC(C)C2)CC1 (centres undefined)
[reply] inconclusive

[ask] Complete the entry with AC50 for O=C(N/N=C/c1ccc(O)cc1)c1csc2ccccc12
[reply] inconclusive

[ask] Complete the entry with AC50 for Cc1c(C)n(C)c2ccc(C(=O)Nc3cccc4ccccc34)cc12
[reply] inconclusive

[ask] Complete the entry with AC50 for CCOC(=O)C1=NOC(CNC(=O)C2=NOC(CNC(=O)c3c(-c4ccccc4Cl)noc3C)C2)C1 (centres undefined)
[reply] inconclusive

====

EC50 values, listed per item
Assay System: Luciferin 4-monooxygenase (Photinus pyralis, UniProt P08659)
Sequence (P08659 whole entry): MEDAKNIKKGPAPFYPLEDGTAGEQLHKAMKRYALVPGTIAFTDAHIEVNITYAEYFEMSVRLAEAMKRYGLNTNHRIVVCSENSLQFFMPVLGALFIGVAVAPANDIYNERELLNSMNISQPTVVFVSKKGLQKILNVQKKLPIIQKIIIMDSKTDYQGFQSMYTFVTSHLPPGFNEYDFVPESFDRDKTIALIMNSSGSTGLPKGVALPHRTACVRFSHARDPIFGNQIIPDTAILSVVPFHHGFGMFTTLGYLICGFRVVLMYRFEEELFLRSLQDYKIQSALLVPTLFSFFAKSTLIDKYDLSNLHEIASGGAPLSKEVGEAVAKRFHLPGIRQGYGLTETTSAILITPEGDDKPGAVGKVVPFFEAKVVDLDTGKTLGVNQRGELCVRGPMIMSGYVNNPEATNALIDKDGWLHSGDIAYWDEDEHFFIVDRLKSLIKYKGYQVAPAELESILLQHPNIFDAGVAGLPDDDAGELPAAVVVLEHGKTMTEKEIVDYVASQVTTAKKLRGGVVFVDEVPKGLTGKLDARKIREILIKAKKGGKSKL
Assay Comment: inhibition of purified Photinus pyralis luciferase – biochemical, luminescence, dose response (AID 1891)

[ask] Complete the entry with EC50 for O=C(NCN1CCN(c2ccccn2)CC1)c1cnccn1
[reply] > 112 µM (not active)

====

Assay Comment: viability of PTEN-deleted HCT116 cells – cell-based, HCT116 PTEN knockout, dose response (AID 1047);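 also: HCT116 colon tumor cells with PTEN knocked out; cells exposed to compound for 60 hours before readout; potency for loss of cell viability measured by luminescence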
Format: functional
Active and inactive are the calls of the source.
EC50 values, listed per item

# count of solved cases: 3
| Smiles Entry | Value Observed |
| --- | --- |
| CC(=O)Nc1cccc(C(=O)/C=C/c2ccc(Br)cc2)c1 | 3.77 µM (active) |
| COc1cc(C(=O)Nc2nc(-c3ccc(Cl)cc3)c(C)s2)ccc1OCC(=O)Nc1ccc(F)cc1 | 1.92 µM (active) |
| Cc1cc(C)cc(C(=O)NC(=S)Nc2ccc(-c3cc4ccccc4oc3=O)cc2)c1 | 11.7 µM (active) |

Next item in the queue.
[ask] Complete the entry with EC50 for Cc1cccc(-n2nc3c4c(ccc3c2O)C(=O)c2ccccc2C4=O)c1
[reply] 114 µM (active)

These entries and their values trace back to ChEMBL document CHEMBL1201862.
